Target: Glucagon-like peptide 1 receptor (Homo sapiens)
Sequence (P43220 whole entry): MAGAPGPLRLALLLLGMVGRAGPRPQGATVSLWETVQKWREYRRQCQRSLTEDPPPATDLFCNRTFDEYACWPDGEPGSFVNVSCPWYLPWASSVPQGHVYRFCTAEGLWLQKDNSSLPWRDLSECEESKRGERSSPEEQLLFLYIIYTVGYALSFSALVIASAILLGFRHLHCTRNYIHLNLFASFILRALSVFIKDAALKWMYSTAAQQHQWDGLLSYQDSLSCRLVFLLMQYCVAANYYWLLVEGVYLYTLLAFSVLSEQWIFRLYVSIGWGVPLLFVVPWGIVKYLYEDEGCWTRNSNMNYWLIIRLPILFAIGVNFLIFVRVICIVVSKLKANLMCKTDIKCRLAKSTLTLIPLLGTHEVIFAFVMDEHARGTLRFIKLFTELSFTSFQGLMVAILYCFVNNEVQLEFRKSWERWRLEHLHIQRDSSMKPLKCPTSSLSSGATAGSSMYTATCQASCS
Assay: Agonist activity at human GLP-1R expressed in CHO-K1 cells assessed as increase in cAMP level incubated for 30 mins
Type: functional, cell-based
Where a SMILES comes first, the peptide text is derived from it. Bridges are numbered along the chain shown (N, C = ends). [ ]: non-standard residue; d: D form. ξ: configuration not given here. Bip(2'-Et-4'-OMe) = CCc1cc(OC)ccc1-c1ccc(C[C@H](N)C(=O)O)cc1; hhPhe = N[C@@H](CCCc1ccccc1)C(=O)O; ξαMeF = CC(N)(Cc1ccccc1)C(=O)O; Aib = CC(C)(N)C(=O)O
value-type: pEC50
# pEC50 = -log10(concentration in molar units)

QUERY: Test system Glucagon-like peptide 1 receptor (Homo sapiens); read-out pEC50; what value for CCc1cc(OC)ccc1-c1ccc(C[C@@H]2NC(=O)[C@H](CC(=O)O)NC(=O)[C@H](CO)NC(=O)[C@@H]3CSSC[C@@H](C(=O)O)NC(=O)[C@H](CSSC[C@H](NC(=O)CNC(=O)[C@H](CCC(=O)O)NC(=O)C(C)(C)NC(=O)[C@@H](N)Cc4cnc[nH]4)C(=O)NC(C)(Cc4ccccc4)C(=O)N3)NC(=O)[C@H](CC(C)C)NC(=O)[C@H](CCCc3ccccc3)NC2=O)cc1 (stereo partly specified) (H-H[Aib]EGC[ξαMeF]CSD[Bip(2'-Et-4'-OMe)][hhPhe]LCC-OH; disulfide 5-13, 7-14) ?
RESULT: 5.80
